Below: a set of entries, each annotated with reported pKd.
target: T1, human PD-L1-his taq protein (human, UniProt Q9NZQ7 19-239, limits assumed)
T1 construct: also called recombinant PD-L1 protein; recombinant human PD-L1; not shown: his tag
T1 sequence (Q9NZQ7 19-239 limits assumed): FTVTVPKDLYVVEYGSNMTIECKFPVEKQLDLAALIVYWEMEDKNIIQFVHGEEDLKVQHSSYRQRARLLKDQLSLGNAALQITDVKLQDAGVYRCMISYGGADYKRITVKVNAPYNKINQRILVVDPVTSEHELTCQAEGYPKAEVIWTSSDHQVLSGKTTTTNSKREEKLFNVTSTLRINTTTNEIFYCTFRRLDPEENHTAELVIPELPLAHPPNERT
protocol text: SPR Biacore T200, antibody captured, PD-L1-his injected
pKd: −log10 of the molar value.

binder	pKd
Hu1210-40 (antibody, V domains shown, Hu1210 VH.4c x Vk.1; human gamma 1 / kappa constant domains) VH: EVQLVESGGGLVQPGGSLRLSCAASGFTFSSYDMSWVRQAPGKSLEWVATISEGGGYIYYSDSVKGRFTISRDNAKNSLYLQMNSLRDEDTAVYICAREFGKRYALDYWGQGTTVTVSS VL: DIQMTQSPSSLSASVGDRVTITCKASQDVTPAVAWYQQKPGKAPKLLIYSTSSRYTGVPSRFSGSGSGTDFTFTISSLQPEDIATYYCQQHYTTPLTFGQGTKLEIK	8.83
Hu1210-42 (antibody, V domains shown, Hu1210 VH.4e x Vk.1; human gamma 1 / kappa constant domains) VH: EVQLVESGGGLVQPGGSLRLSCAASGFTFSSYDMSWVRQAPGKSLEWVATISDVGGYIYYSDSVKGRFTISRDNAKNSLYLQMNSLRDEDTAVYICAREFGKRYALDYWGQGTTVTVSS VL: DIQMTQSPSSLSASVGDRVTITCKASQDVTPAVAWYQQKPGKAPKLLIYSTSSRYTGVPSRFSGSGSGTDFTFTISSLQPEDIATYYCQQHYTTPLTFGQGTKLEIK	9.06
Hu1210-31 (antibody, V domains shown, Hu1210 VH.5b x Vk.2; human gamma 1 / kappa constant domains) VH: EVQLVESGGGLVQPGGSLRLSCAASGFTFSSYDMSWVRQAPGKGLEWVATISDGGGYIYYSDSVKGRFTISRDNAKNSLYLQMNSLRAEDTAVYICAREFGKRYALDYWGQGTTVTVSS VL: DIQMTQSPSSLSASVGDRVTITCKASQDVTPAVAWYQQKPGKAPKLLIYSTSSRYTGVPSRFSGSGSGTDFTLTISSLQPEDFATYYCQQHYTTPLTFGQGTKLEIKR	9.10
